Give measured MIC for each item. Keep answers brief.
test system: Acinetobacter baumannii; assay: microbe, parasite or virus in culture; settings: ATCC 19606
Description: Antibacterial activity against Acinetobacter baumannii ATCC 19606 assessed as inhibition of bacterial growth by broth microdilution method
Give bare numbers, in µg/mL.

Compound	Experimental endpoint	Measured result
COc1ccc(C[n+]2ccc(CCCOC(=O)c3cc(O)c4c(c3)C(=O)c3cccc(O)c3C4=O)cc2)cc1.[Br-]	MIC	128

Please find the next compound below.
Given the compound CO/N=C(\C(=O)N[C@@H]1C(=O)N2C(C(=O)O)=C(COC(N)=O)CS[C@H]12)c1ccco1 [CEFUROXIME] , what is its reported MIC? 1020

----------
Please respond with reported pIC50 for every item in the list.
target: Cholinesterase (Equus caballus, UniProt P81908); test: Inhibition of equine serum BuChE using butyrylthiocholine iodide as substrate measured for 30 mins by ELLman's method
Sequence (P81908 whole entry): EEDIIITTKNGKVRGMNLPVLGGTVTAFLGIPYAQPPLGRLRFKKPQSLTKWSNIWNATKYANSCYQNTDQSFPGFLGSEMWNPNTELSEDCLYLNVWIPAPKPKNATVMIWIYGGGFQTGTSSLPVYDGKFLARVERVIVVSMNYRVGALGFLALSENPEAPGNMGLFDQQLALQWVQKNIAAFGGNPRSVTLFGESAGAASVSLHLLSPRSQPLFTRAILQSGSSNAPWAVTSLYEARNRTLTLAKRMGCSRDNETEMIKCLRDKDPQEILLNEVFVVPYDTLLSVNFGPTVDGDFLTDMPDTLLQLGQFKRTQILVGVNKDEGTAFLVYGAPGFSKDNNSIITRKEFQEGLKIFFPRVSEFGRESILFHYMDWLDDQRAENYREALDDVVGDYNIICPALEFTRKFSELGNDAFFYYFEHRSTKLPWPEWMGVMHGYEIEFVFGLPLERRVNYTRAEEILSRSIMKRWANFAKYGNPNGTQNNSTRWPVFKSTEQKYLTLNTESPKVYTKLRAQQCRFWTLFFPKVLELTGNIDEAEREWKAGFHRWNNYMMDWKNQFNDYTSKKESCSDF
Answers are plain numbers, as −log10 of the molar value.

For orientation, consider the following solved cases.
O=C(NCCCCNc1c2c(nc3ccccc13)CCCC2)c1cc(O)c2c(c1)C(=O)c1cccc(O)c1C2=O 6.54
O=C(NCCCCCCNc1c2c(nc3cc(Cl)ccc13)CCCC2)c1cc(O)c2c(c1)C(=O)c1cccc(O)c1C2=O 6.11
O=C(NCCCCCCNc1c2c(nc3ccccc13)CCC2)c1cc(O)c2c(c1)C(=O)c1cccc(O)c1C2=O 6.66

Param item = O=C(NCCCCCCCCNc1c2c(nc3ccccc13)CCCC2)c1cc(O)c2c(c1)C(=O)c1cccc(O)c1C2=O ; retrieve measured pIC50. 6.44

----------
experiment: cells; details: Homo sapiens, SPCA1, 72 h
Description: Anticancer activity against human SPCA1 cells assessed as reduction in cell viability incubated for 72 hrs by MTT assay
Assign IC50 to each entry below.
Answers are plain numbers, in µM.

Compound	Result unit	Measured result
CCOP(=O)(OCC)C(C)(NC(=O)c1cc(O)c2c(c1)C(=O)c1cccc(O)c1C2=O)c1ccc(C)cc1 (centres undefined)	µM	16.9
O=c1[nH]cc(F)c(=O)[nH]1 [FLUOROURACIL]	µM	42.2

I'm hoping you can list IC50 for every compound here, please.
1. CCOP(=O)(OCC)C(NC(=O)c1cc(O)c2c(c1)C(=O)c1cccc(O)c1C2=O)c1ccccc1 (centres undefined)
2. CCOP(=O)(OCC)C(NC(=O)c1cc(O)c2c(c1)C(=O)c1cccc(O)c1C2=O)c1cccc(Cl)c1 (centres undefined)
3. CCOP(=O)(OCC)C(NC(=O)c1cc(O)c2c(c1)C(=O)c1cccc(O)c1C2=O)c1ccc(OC)cc1 (centres undefined)
4. CCOP(=O)(OCC)C(NC(=O)c1cc(O)c2c(c1)C(=O)c1cccc(O)c1C2=O)c1cccc(OC)c1 (centres undefined)
5. CCOP(=O)(OCC)C(C)(NC(=O)c1cc(O)c2c(c1)C(=O)c1cccc(O)c1C2=O)c1ccccc1 (centres undefined)

[27.4, 28.3, 38.9, 28.3, 25.1]

I'm hoping you can list IC50 for every compound here, please.
1. CCOP(=O)(OCC)C(C)(CCc1ccccc1)NC(=O)c1cc(O)c2c(c1)C(=O)c1cccc(O)c1C2=O (centres undefined)
2. CCOP(=O)(OCC)C(NC(=O)c1cc(O)c2c(c1)C(=O)c1cccc(O)c1C2=O)c1ccccc1OC (centres undefined)

9.01
15

----------
molecular target: Acetylcholinesterase (Electrophorus electricus, UniProt O42275)
Sequence (O42275 whole entry): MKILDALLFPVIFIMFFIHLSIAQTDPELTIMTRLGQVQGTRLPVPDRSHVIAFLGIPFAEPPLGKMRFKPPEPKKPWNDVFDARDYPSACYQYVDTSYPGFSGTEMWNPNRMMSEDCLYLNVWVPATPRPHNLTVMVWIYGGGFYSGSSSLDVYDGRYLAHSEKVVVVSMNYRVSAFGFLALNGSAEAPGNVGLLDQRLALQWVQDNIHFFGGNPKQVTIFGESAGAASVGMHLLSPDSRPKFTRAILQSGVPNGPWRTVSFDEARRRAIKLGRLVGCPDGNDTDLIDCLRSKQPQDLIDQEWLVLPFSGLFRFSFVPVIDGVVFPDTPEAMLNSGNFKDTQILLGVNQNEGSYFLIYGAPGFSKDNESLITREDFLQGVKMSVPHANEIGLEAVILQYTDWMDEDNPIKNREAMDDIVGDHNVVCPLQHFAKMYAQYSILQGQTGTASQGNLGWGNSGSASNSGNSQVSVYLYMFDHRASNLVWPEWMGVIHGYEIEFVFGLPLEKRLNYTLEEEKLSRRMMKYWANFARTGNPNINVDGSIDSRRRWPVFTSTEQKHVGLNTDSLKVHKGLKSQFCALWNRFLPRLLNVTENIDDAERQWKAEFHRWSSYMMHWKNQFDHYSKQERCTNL
What IC50 was measured for each of the following?

Take a look at these entries with their results.
O=C(NCCCCNc1c2c(nc3ccccc13)CCCC2)c1cc(O)c2c(c1)C(=O)c1cccc(O)c1C2=O 58.7 nM
O=C(NCCCCCCNc1c2c(nc3cc(Cl)ccc13)CCCC2)c1cc(O)c2c(c1)C(=O)c1cccc(O)c1C2=O 22 nM
O=C(NCCCCCCCCNc1c2c(nc3ccccc13)CCCC2)c1cc(O)c2c(c1)C(=O)c1cccc(O)c1C2=O 148 nM

Which IC50 is listed for O=C(NCCCCCCNc1c2c(nc3ccccc13)CCC2)c1cc(O)c2c(c1)C(=O)c1cccc(O)c1C2=O ? 543 nM
